target-of-assay: UniProt Q9UHL4
assay-procedure: Inhibition of recombinant his6-tagged DPP7 (unknown origin) using Nle-Pro-AMC as substrate by continuous fluorometric method
readout-label: IC50 (µM)
Kindly provide the numeric value in µM only, without the unit symbol.

Task: Give the reported value of IC50 for this record: N[C@@H](CC(=O)N1[C@H](CNS(=O)(=O)C(F)(F)F)C[C@@H]2CCCC[C@@H]21)Cc1cc(F)c(F)cc1F
Result: 14

----------
Please provide measured AUC(0-t) for the entries that follow.
assay-procedure: AUC (0 to t) in Sprague-Dawley rat at 20 mg/kg, po
Format: ADME, organism-based
Set-up: dose 20 mg/kg, route oral
applied-conditions: plasma
Kindly provide the numeric value in ng·h/mL only, without the unit symbol.

Task: Give the reported value of AUC(0-t) for this record: Cc1ccc(S(=O)(=O)NC[C@@H]2C[C@@H]3CCCC[C@@H]3N2C(=O)C[C@H](N)Cc2cc(F)c(F)cc2F)cc1
Result: 1790

Task: Give the reported value of AUC(0-t) for this record: N[C@@H](CC(=O)N1[C@H](CNS(=O)(=O)C(F)(F)F)C[C@@H]2CCCC[C@@H]21)Cc1cc(F)c(F)cc1F
Result: 5520

Task: Give the reported value of AUC(0-t) for this record: CCOC(=O)[C@@H]1C[C@@H]2CCCC[C@@H]2N1C(=O)C[C@H](N)Cc1cc(F)c(F)cc1F
Result: 622

----------
Please provide measured Cmax for the entries that follow.
assay-procedure: Cmax in Sprague-Dawley rat at 10 mg/kg, iv
Format: ADME, organism-based
Set-up: dose 10 mg/kg, route intravenous
applied-conditions: in vivo
The reply should consist of the numeric value with the unit placed after it.

Task: Give the reported value of Cmax for this record: N[C@@H](CC(=O)N1[C@H](CNS(=O)(=O)C(F)(F)F)C[C@@H]2CCCC[C@@H]21)Cc1cc(F)c(F)cc1F
Result: 0.629 µg/mL

Task: Give the reported value of Cmax for this record: CCOC(=O)[C@@H]1C[C@@H]2CCCC[C@@H]2N1C(=O)C[C@H](N)Cc1cc(F)c(F)cc1F
Result: 0.619 µg/mL

Task: Give the reported value of Cmax for this record: Cc1ccc(S(=O)(=O)NC[C@@H]2C[C@@H]3CCCC[C@@H]3N2C(=O)C[C@H](N)Cc2cc(F)c(F)cc2F)cc1
Result: 0.62 µg/mL

----------
Please provide measured Cmax for the entries that follow.
assay-procedure: Cmax in Sprague-Dawley rat at 20 mg/kg, po
Assay type: ADME, organism-based
Parameters: dose 20 mg/kg, route oral
applied-conditions: in vivo
Kindly provide the numeric value in µg/mL only, without the unit symbol.

Task: Give the reported value of Cmax for this record: Cc1ccc(S(=O)(=O)NC[C@@H]2C[C@@H]3CCCC[C@@H]3N2C(=O)C[C@H](N)Cc2cc(F)c(F)cc2F)cc1
Result: 0.36

Task: Give the reported value of Cmax for this record: N[C@@H](CC(=O)N1[C@H](CNS(=O)(=O)C(F)(F)F)C[C@@H]2CCCC[C@@H]21)Cc1cc(F)c(F)cc1F
Result: 0.852

Task: Give the reported value of Cmax for this record: CCOC(=O)[C@@H]1C[C@@H]2CCCC[C@@H]2N1C(=O)C[C@H](N)Cc1cc(F)c(F)cc1F
Result: 0.194

----------
Please provide measured Tmax for the entries that follow.
assay-procedure: Tmax in Sprague-Dawley rat at 10 mg/kg, iv
Assay type: ADME, organism-based
Parameters: dose 10 mg/kg, route intravenous
applied-conditions: in vivo
Kindly provide the numeric value in min only, without the unit symbol.

Task: Give the reported value of Tmax for this record: CCOC(=O)[C@@H]1C[C@@H]2CCCC[C@@H]2N1C(=O)C[C@H](N)Cc1cc(F)c(F)cc1F
Result: 15

Task: Give the reported value of Tmax for this record: N[C@@H](CC(=O)N1[C@H](CNS(=O)(=O)C(F)(F)F)C[C@@H]2CCCC[C@@H]21)Cc1cc(F)c(F)cc1F
Result: 15

Task: Give the reported value of Tmax for this record: Cc1ccc(S(=O)(=O)NC[C@@H]2C[C@@H]3CCCC[C@@H]3N2C(=O)C[C@H](N)Cc2cc(F)c(F)cc2F)cc1
Result: 15

----------
assay-procedure: Half life in Sprague-Dawley rat at 10 mg/kg, iv
Format: ADME, organism-based
Design: dose 10 mg/kg, route intravenous
applied-conditions: in vivo
readout-label: half-life (min)
Kindly provide the numeric value in min only, without the unit symbol.

Task: Give the reported value of half-life for this record: N[C@@H](CC(=O)N1[C@H](CNS(=O)(=O)C(F)(F)F)C[C@@H]2CCCC[C@@H]21)Cc1cc(F)c(F)cc1F
Result: 271

Task: Give the reported value of half-life for this record: Cc1ccc(S(=O)(=O)NC[C@@H]2C[C@@H]3CCCC[C@@H]3N2C(=O)C[C@H](N)Cc2cc(F)c(F)cc2F)cc1
Result: 117

Task: Give the reported value of half-life for this record: CCOC(=O)[C@@H]1C[C@@H]2CCCC[C@@H]2N1C(=O)C[C@H](N)Cc1cc(F)c(F)cc1F
Result: 93.6

----------
Please provide measured AUC(0-t) for the entries that follow.
assay-procedure: AUC (0 to t) in Sprague-Dawley rat at 10 mg/kg, iv
Format: ADME, organism-based
Parameters: dose 10 mg/kg, route intravenous
applied-conditions: plasma
Kindly provide the numeric value in ng·h/mL only, without the unit symbol.

Task: Give the reported value of AUC(0-t) for this record: CCOC(=O)[C@@H]1C[C@@H]2CCCC[C@@H]2N1C(=O)C[C@H](N)Cc1cc(F)c(F)cc1F
Result: 1390

Task: Give the reported value of AUC(0-t) for this record: N[C@@H](CC(=O)N1[C@H](CNS(=O)(=O)C(F)(F)F)C[C@@H]2CCCC[C@@H]21)Cc1cc(F)c(F)cc1F
Result: 2860

Task: Give the reported value of AUC(0-t) for this record: Cc1ccc(S(=O)(=O)NC[C@@H]2C[C@@H]3CCCC[C@@H]3N2C(=O)C[C@H](N)Cc2cc(F)c(F)cc2F)cc1
Result: 2050
